System: NL-RLuc virus
Test: Inhibition of HIV replication: NL-RLuc reporter virus in MT-2 cells, luciferase readout
Assay type: cell-based
Settings: Human immunodeficiency virus 1, MT2, 120 h, MT-2 cells infected with NL-RLuc virus, 5 days of incubation, 10% FBS, at least 2 experiments
pEC50 values by entry
Conceptually, pEC50 converts a concentration in mol/L into minus its log10.

# compound, valueType, experimentalValue
data = [
    ("Cc1cc2nc3cn2c(c1[C@H](OC(C)(C)C)C(=O)O)N1CCC(C)(CC1)OC/C=C/C[C@H](C)Oc1c(F)cccc1-c1cccc-3c1 [Example 34]", "pEC50", 8.52),
    ("Cc1cc2nc3c(F)n2c(c1[C@H](OC(C)(C)C)C(=O)O)N1CCC(C)(CC1)OCCCC[C@H](C)Oc1cc(F)c(F)cc1-c1cccc-3c1 [Example 26]", "pEC50", 7.59),
    ("Cc1cc2c(cc1C)-c1cccc(c1)-c1cn3c(c([C@H](OC(C)(C)C)C(=O)O)c(C)cc3n1)N1CCC(C)(CC1)OC/C=C\\C[C@H](C)O2 [Example 18]", "pEC50", 8.10),
]

Input line: GET /values?readout=pEC50&item= Cc1cc(F)c2c(c1)O[C@@H](C)CCCCOC1(C)CCN(CC1)c1c([C@H](OC(C)(C)C)C(=O)O)c(C)cc3nc(cn13)-c1cccc-2c1 [Example 21]
Output line: 8.30

Input line: And then Cc1c([C@H](OC(C)(C)C)C(=O)O)c2n3cc(nc3c1C)-c1cccc(c1)-c1cc(F)cc(F)c1O[C@@H](C)CCCCOC1(C)CCN2CC1 [Example 45] , what is it?
Output line: 7.33

Input line: And then Cc1cc2nc3cn2c(c1[C@H](OC(C)(C)C)C(=O)O)N1CCC(C)(CC1)OCCCCC[C@H](C)Oc1cc(F)cc(F)c1-c1cccc-3c1 [Example 16] , what is it?
Output line: 8.40

====

Tested on: NL-RLuc virus
Assay: Inhibition of HIV replication: NL-RLuc reporter virus in MT-2 cells, luciferase readout
Format: cell-based
Settings: Human immunodeficiency virus 1, MT2, 120 h, MT-2 cells infected with NL-RLuc virus, 5 days of incubation, 10% FBS, at least 2 experiments
valueType: pEC50
Conceptually, pEC50 converts a concentration in mol/L into minus its log10.

# compound, pEC50
rows = [
    ("Cc1ccc2c(c1)-c1cccc(c1)-c1nc3cc(C)c([C@H](OC(C)(C)C)C(=O)O)c(n3c1Cl)N1CCC(C)(CC1)OCCCC[C@H](C)O2 [Example 22]", 7.62),
    ("Cc1c([C@H](OC(C)(C)C)C(=O)O)c2n3cc(nc3c1CO)-c1cccc(c1)-c1c(ccc(F)c1F)O[C@@H](C)CCCCOC1(C)CCN2CC1 [Example 54]", 8.40),
    ("Cc1cc2c(cc1F)-c1cccc(c1)-c1nc3cc(C)c([C@H](OC(C)(C)C)C(=O)O)c(n3c1Br)N1CCC(C)(CC1)OCCCC[C@H](C)O2 [Example 27]", 7.89),
    ("Cc1cc2c(cc1F)-c1cccc(c1)-c1nc3cc(C)c([C@H](OC(C)(C)C)C(=O)O)c(n3c1Cl)N1CCC(C)(CC1)OCCCC[C@H](C)O2 [Example 24]", 7.70),
]

Input line: Form field: pEC50 recorded for Cc1cc2nc3cn2c(c1[C@H](OC(C)(C)C)C(=O)O)N1CCC(C)(CC1)OCCCCCOc1ccc(F)cc1CNC3=O [Example 3] with NL-RLuc virus (enter value)
Output line: 7.57

Input line: And then Cc1cc2c(cc1F)-c1cccc(c1)-c1cn3c(c([C@H](OC(C)(C)C)C(=O)O)c(C)cc3n1)N1CCC(C)(CC1)OCCCC[C@H](C)O2 [Example 20] , what is it?
Output line: 7.96

====

System: NL-RLuc virus
Assay: Inhibition of HIV replication: NL-RLuc reporter virus in MT-2 cells, luciferase readout
Format: cell-based
Conditions: Human immunodeficiency virus 1, MT2, 120 h, MT-2 cells infected with NL-RLuc virus, 5 days of incubation, 10% FBS, at least 2 experiments
valueType: EC50
Reply with the number and its unit after it.

Below are worked cases with known answers.
# compoundStructure, EC50
rows = [
    ("Cc1c([C@H](OC(C)(C)C)C(=O)O)c2n3cc(nc3c1C)-c1cccc(c1)-c1cc(OC(F)(F)F)ccc1O[C@@H](C)CCCCOC1(C)CCN2CC1", "60 nM"),
    ("Cc1c([C@H](OC(C)(C)C)C(=O)O)c2n3cc(nc3c1C(C)(C)O)-c1cccc(c1)-c1cc(F)ccc1O[C@@H](C)CCCCOC1(C)CCN2CC1", "6 nM"),
    ("CCc1c(C)c([C@H](OC(C)(C)C)C(=O)O)c2n3cc(nc13)-c1cccc(c1)-c1cc(F)ccc1O[C@@H](C)CCCCOC1(C)CCN2CC1", "9 nM"),
    ("Cc1cc2c(cc1F)-c1cccc(c1)-c1nc3c(Br)c(C)c([C@H](OC(C)(C)C)C(=O)O)c(n3c1Cl)N1CCC(C)(CC1)OCCCC[C@H](C)O2", "30 nM"),
]

Input line: Form field: EC50 recorded for Cc1ccc2c(c1)-c1cccc(c1)-c1cn3c(c([C@H](OC(C)(C)C)C(=O)O)c(C)cc3n1)N1CCC(C)(CC1)OC/C=C/C[C@H](C)O2 with NL-RLuc virus (enter value)
Output line: 9 nM

Input line: And then Cc1cc2nc3cn2c(c1[C@H](OC(C)(C)C)C(=O)O)N1CCC(C)(CC1)OCCCC[C@H](C)Oc1cc(F)c(F)cc1-c1cccc-3c1 , what is it?
Output line: 8 nM

====

System: NL-RLuc virus
Assay: Inhibition of HIV replication: NL-RLuc reporter virus in MT-2 cells, luciferase readout
Format: cell-based
Conditions: MT-2 cells infected with NL-RLuc virus, 5 days of incubation, 10% FBS, at least 2 experiments
pEC50 values by entry
Conceptually, pEC50 converts a concentration in mol/L into minus its log10.

# compound, testedSystem, valueType, experimentalValue
records = [
    ("Cc1c([C@H](OC(C)(C)C)C(=O)O)c2n3cc(nc3c1C(C)O)-c1cccc(c1)-c1c(ccc(F)c1F)O[C@@H](C)CCCCOC1(C)CCN2CC1 (some centres unmarked) [Example 50]", "NL-RLuc virus", "pEC50", 8.00),
    ("Cc1c([C@H](OC(C)(C)C)C(=O)O)c2n3cc(nc3c1C)-c1cccc(c1)-c1c(F)cc(F)cc1O[C@@H](C)CCCCOC1(C)CCN2CC1 [Example 43]", "NL-RLuc virus", "pEC50", 7.96),
    ("Cc1c([C@H](OC(C)(C)C)C(=O)O)c2n3cc(nc3c1C(C)O)-c1cccc(c1)-c1c(ccc(F)c1F)O[C@@H](C)CCCCOC1(C)CCN2CC1 (some centres unmarked) [Example 49]", "NL-RLuc virus", "pEC50", 8.70),
    ("Cc1cc2c(cc1F)-c1cccc(c1)-c1nc3cc(C)c([C@H](OC(C)(C)C)C(=O)O)c(n3c1Br)N1CCC(C)(CC1)OCCCC[C@H](C)O2", "NL-RLuc virus", "pEC50", 8.10),
]

Input line: GET /values?readout=pEC50&item= Cc1c([C@H](OC(C)(C)C)C(=O)O)c2n3cc(nc3c1C)-c1cccc(c1)-c1c(F)cc(F)cc1O[C@@H](C)CCCCOC1(C)CCN2CC1 [Example 44]
Output line: 6.48

====

System: NL-RLuc virus
Assay: Inhibition of HIV replication: NL-RLuc reporter virus in MT-2 cells, luciferase readout
Type: cell-based
Details: Human immunodeficiency virus 1, MT2, 120 h, MT-2 cells infected with NL-RLuc virus, 5 days of incubation, 10% FBS, at least 2 experiments
pEC50 values by entry
Conceptually, pEC50 converts a concentration in mol/L into minus its log10.

# compoundStructure, pEC50
rows = [
    ("Cc1cc2nc3c(Cl)n2c(c1[C@H](OC(C)(C)C)C(=O)O)N1CCC(C)(CC1)OCCCC[C@H](C)Oc1cc(F)c(F)cc1-c1cccc-3c1", 7.72),
    ("Cc1c([C@H](OC(C)(C)C)C(=O)O)c2n3cc(nc3c1C)-c1cccc(c1)-c1c(ccc(F)c1F)O[C@@H](C)CCCCOC1(C)CCN2CC1", 8.15),
    ("Cc1c([C@H](OC(C)(C)C)C(=O)O)c2n3cc(nc3c1Br)-c1cccc(c1)-c1cc(F)ccc1O[C@@H](C)CCCCOC1(C)CCN2CC1", 8.00),
    ("Cc1cc2nc3cn2c(c1[C@H](OC(C)(C)C)C(=O)O)N1CCC(C)(CC1)OCCCCCOc1ccccc1Cc1nnc-3o1", 8.00),
    ("Cc1cc2c(cc1C)-c1cccc(c1)-c1nc3cc(C)c([C@H](OC(C)(C)C)C(=O)O)c(n3c1Cl)N1CCC(C)(CC1)OCCCC[C@H](C)O2", 7.52),
]

Input line: GET /values?readout=pEC50&item= Cc1c([C@H](OC(C)(C)C)C(=O)O)c2n3cc(nc3c1C(F)F)-c1cccc(c1)-c1cc(F)ccc1O[C@@H](C)CCCCOC1(C)CCN2CC1
Output line: 7.74
